UniProt:P00734 pKi, compiled from various sources.
pKi: −log10 of the molar value.
measurement_type: pKi

Consider the worked cases shown below.
Q: # get_value(readout='pKi', item= `CC(C)(CNc1ccc(Cl)c(CC(=O)NCCONC(=N)N)c1F)c1ccccn1` )
Ans: 7.24

Q: `CC(C)(C)OC(=O)CNc1nc(Cl)c2n(c1=O)[C@H](C(=O)NCc1ccc(C(=N)N)cc1)CC2(C)C` ?
Ans: 7.49

[1] CC(C)(C)OC(=O)N[C@@H](C(=O)N1CCC[C@H]1C(=O)NCC#Cc1cnc[nH]1)C(C1CCCCC1)C1CCCCC1
[2] Cc1ccc(NS(=O)(=O)Cc2ccccc2)c(=O)n1CC(=O)NC/C=C/c1c[nH]cn1
Q: Short answer wanted: higher pKi, 1 or 2 ? I would appreciate it if you answered with the label of your choice.
Ans: 1
(1: 7.54, 2: 6.84)
